System: E. coli TESEC Mtb Alr
Assay: growth (OD600 after 10 h); higher = more growth (less inhibition)
Details: arabinose 10000000 nM; compound 0.1 mM; raw OD600 reference: median of DMSO wells […], cell-free background 0.052
Structures can show the parent of a compound that is named as a salt.
quantityKind: growth

Reference set (10 entries):
# molecule, growth
measured = [
    ("Cc1ccccc1N1C(=O)c2cc(S(N)(=O)=O)c(Cl)cc2NC1C (stereo not given) [Metolazone]", 0.292),
    ("CC(C(O)c1ccc(O)cc1)N1CCC(Cc2ccccc2)CC1 (stereo not given) [Ifenprodil tartrate]", 0.312),
    ("Cc1ccc(-c2ncc(Cl)cc2-c2ccc(S(C)(=O)=O)cc2)cn1 [Etoricoxib]", 0.281),
    ("CC(=O)Nc1ccc(O)cc1 [Acetaminophen]", 0.335),
    ("CN1CCc2c(c3ccccc3n2Cc2ccccc2)C1 [Mebhydroline 1,5-naphtalenedisulfonate]", 0.261),
    ("O=C(Nc1ccc([N+](=O)[O-])cc1Cl)c1cc(Cl)ccc1O [Niclosamide]", 0.0616),
    ("CC(=O)OCC(CCn1cnc2cnc(N)nc21)COC(C)=O [Famciclovir]", 0.346),
    ("C=C(CC)C(=O)c1ccc(OCC(=O)O)c(Cl)c1Cl [Ethacrynic acid]", 0.374),
    ("COc1cc2nc(N3CCN(C(=O)c4ccco4)CC3)nc(N)c2cc1OC [Prazosin hydrochloride]", 0.309),
    ("Nc1nc2c(ncn2COC(CO)CO)c(=O)[nH]1 [Ganciclovir]", 0.365),
]

For each of the molecules below, state growth.
1. CN(C)/N=N/c1[nH]cnc1C(N)=O [Dacarbazine]
2. NS(=O)(=O)c1cc2c(cc1Cl)NCNS2(=O)=O [Hydrochlorothiazide]
3. CC(C)(C(=O)O)c1ccc(C(O)CCCN2CCC(C(O)(c3ccccc3)c3ccccc3)CC2)cc1 (stereo not given) [Fexofenadine HCl]
4. Cc1onc(-c2ccccc2)c1-c1ccc(S(N)(=O)=O)cc1 [Valdecoxib]
5. O=C(COc1ccc(Cl)cc1)N1CCN(Cc2ccc3c(c2)OCO3)CC1 [Fipexide hydrochloride]
6. Nc1nc2[nH]cc(CCc3ccc(C(=O)N[C@@H](CCC(=O)O)C(=O)O)cc3)c2c(=O)[nH]1 [Pemetrexed disodium]
7. Nc1ncnc2c1ncn2C1OC(COP(=O)(O)O)C(O)C1O (stereo not given) [Adenosine 5'-monophosphate monohydrate]
8. Cc1ccc(N(CC2=NCCN2)c2cccc(O)c2)cc1 [Phentolamine hydrochloride]

[0.296, 0.367, 0.309, 0.198, 0.168, 0.32, 0.363, 0.352]

Provenance of the data: the supplement of paper PMC9262897
